TESTED_SYSTEM: T1, A33 antigen (full-length human A33) (human, UniProt Q99795 22-319)
T1 construct: Class I cell membrane protein of the Ig superfamily; also called GPA33; human A33 antigen
T1 sequence: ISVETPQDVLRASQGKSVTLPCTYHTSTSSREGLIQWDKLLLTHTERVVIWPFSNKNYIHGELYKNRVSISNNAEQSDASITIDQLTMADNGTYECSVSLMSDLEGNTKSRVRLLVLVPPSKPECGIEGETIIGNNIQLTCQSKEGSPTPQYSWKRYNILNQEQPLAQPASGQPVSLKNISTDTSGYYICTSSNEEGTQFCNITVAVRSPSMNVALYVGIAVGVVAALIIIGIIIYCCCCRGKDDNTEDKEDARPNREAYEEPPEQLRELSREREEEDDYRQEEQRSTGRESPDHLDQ
EXPERIMENT_NOTES: FCM on COLO205 cells; grade = ng/ml to reach half MFI 90 (+++ 10<=x<100, ++ 100<=x<1000, + 1000<=x<10000)
PARAMETER: antibody concentration required to reach half value of mean fluorescence intensity

// below: answered binders
BINDER	VALUE_MEASURED
263A17 (antibody, V domains shown, Human IgG1 kappa antibody purified from the hybridoma; also called 263A17 antibody) VH: EVQLLESGGGLVQPGGSLRLSCAASGFTFSSYAMSWIRQAPGKGLEWVSAISASGGSTYYADSVKGRFTISRDNSKNTLYLQMNSLRAEDTAVYYCAKDRIVGATNYYYGMDVWGQGTTVTVSS VL: DIQMTQSPPSVSASVGDRVTITCRASQGISSWLAWYQHKPGKAPKLLIYGASSLQSGVPSRFSGSGSGTDFTLTISSLQPEDFATYYCQQANSFPITFGQGTRLEIK	100 to 1000 ng/mL
125R5AAAA (antibody, V domains shown, Human IgG1 kappa antibody purified from the hybridoma (FERM BP-10103); also called 125R5AAAA antibody) VH: EVQLLESGGGLVQPGGSLRLSCAASGFTFSSYAMSWVRQAPGKGLEWVSDISGSGGYTYYADSVKGRFTISRDNSKKTLYLQMNSLRAEDTAVYYCAKTGDGSGSYSPDYWGQGTLVTVSS VL: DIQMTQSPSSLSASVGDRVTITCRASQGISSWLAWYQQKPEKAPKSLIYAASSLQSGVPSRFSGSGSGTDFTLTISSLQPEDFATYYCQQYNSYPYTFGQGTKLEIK	10 to 100 ng/mL
125M10AA (antibody, human IgG1, kappa, V domains shown, Human IgG1 kappa antibody purified from hybridoma 125M10AA (FERM BP-10107); also called 125M10AA antibody) VH: QLQVQESGPGLVKPSETLSLICTVSGGSIRTSGYYWGWFRQPPGKGLEWIGTSHNSGSTYYNPSLKSRVTISVDTSKNQFSLKLNSVTAADTAVYYCARQGYDFKVNIDVWGQGTTVTVSS VL: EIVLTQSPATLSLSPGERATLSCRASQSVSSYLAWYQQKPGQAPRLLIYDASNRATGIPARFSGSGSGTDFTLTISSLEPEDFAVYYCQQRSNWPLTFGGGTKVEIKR	10 to 100 ng/mL

query: Given 125M96ABA (antibody, V domains shown, Human IgG1 kappa antibody purified from the hybridoma (FERM BP-10108); also called 125M96ABA antibody) VH: QLQLQESGPGLVKPSETLSLTCTVSGGSISTSSYYWGWIRQPPGKGLEWIGTIYYNGSTYYSPSLKSRVSISVDTSKNQFSLKLSSVTAADTSVYYCARQGYDIKINIDVWGQGTTVTVSS VL: EIVLTQSPATLSLSPGERATLSCRASQSVSSYLAWYQQKPGQAPRLLIYVASNRATGIPARFSGSGSGTDFTLTISSLEPEDFAVYYCQQRSNWPLTFGGGTKVEIK , respond with its antibody concentration required to reach half value of mean fluorescence intensity.
result: 10 to 100 ng/mL

query: Given 125Q47BA (antibody, V domains shown, Human IgG1 kappa antibody purified from the hybridoma (FERM BP-10104); also called 125Q47BA antibody) VH: EVQLLESGGGLVQPGGSLRLSCAASGFTFSSYAMTWVRQAPGKGLEWVSDISGSGGYTYYADSVKGRFTISRDNSKNTLYLQMNSLRAEDTAVYYCAKTGAGSGSYSPDSWGQGTLVTVSS VL: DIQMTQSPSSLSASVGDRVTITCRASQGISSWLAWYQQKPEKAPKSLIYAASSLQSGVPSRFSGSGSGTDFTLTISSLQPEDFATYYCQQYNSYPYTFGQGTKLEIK , respond with its antibody concentration required to reach half value of mean fluorescence intensity.
result: 10 to 100 ng/mL

Data credit: patent US20080200654A1
